Molecular target: Thioredoxin glutathione reductase (Schistosoma mansoni) (UniProt Q962Y6)
Test: qHTS Assay for the Inhibitors of Schistosoma Mansoni Peroxiredoxins. [Related pubchem assays: 1011 (Confirmation Concentration-Response Assay for Inhibitors of the Schistosoma mansoni Redox Cascade ), 448 (Schistosoma Mansoni Peroxiredoxins (Prx2) and thioredoxin glutathione reductase (TGR) coupled assay)]
Assay type: functional
Among all 360,000 compounds or so, about 11,000 (3.1%) were called active. Roughly 4% stayed inconclusive and do not appear here. The calls are words filed in the database; no cut-off is given here. The sample as a whole holds a higher share of actives than the screen did.
// one of true (active), false (inactive), no free text

Past entries and their recorded results:
- Cc1ccc(CNC(=O)C(NS(=O)(=O)c2cccc3nsnc23)C(C)C)cc1 (centres undefined): false
- Cc1ccc(CNC(=O)C(=O)NCC2OCCN2S(=O)(=O)c2ccc3c(c2)OCCO3)cc1 (centres undefined): true
- Nc1c2c(nn1-c1ccc(C(=O)O)cc1)CNC2: false

Now examine the next entry.
Qu. Per the records of this test, what outcome belongs to Cl.N[C@@H](CCC(=O)O)C(=O)O ?
Ans. true
